- EXPERIMENTAL TARGET: UniProtKB P10635
- Sequence (P10635 whole entry): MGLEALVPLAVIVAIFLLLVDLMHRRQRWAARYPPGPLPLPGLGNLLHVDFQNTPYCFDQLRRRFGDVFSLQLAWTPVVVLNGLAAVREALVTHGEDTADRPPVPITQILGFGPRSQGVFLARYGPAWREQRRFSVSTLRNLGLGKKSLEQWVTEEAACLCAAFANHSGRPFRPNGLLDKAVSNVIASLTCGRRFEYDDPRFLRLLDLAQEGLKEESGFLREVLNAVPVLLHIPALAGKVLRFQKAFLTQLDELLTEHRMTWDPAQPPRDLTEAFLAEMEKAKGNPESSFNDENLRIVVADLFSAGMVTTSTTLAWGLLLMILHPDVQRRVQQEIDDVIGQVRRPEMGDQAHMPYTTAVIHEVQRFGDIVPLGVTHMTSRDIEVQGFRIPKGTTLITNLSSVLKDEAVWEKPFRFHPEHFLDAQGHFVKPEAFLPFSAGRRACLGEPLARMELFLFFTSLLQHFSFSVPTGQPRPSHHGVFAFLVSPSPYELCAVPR
- ASSAY SUMMARY: Inhibition of CYP2D6 (unknown origin) at 3 uM
- Assay type: ADME
Here, each record is paired with measured inhibition at 3 µM data.
MEASURED ATTRIBUTE: inhibition at 3 µM

                                   compound  reported
0  COc1ccc2c(c1O)CCCC(CC(O)CO)=C2c1cc(OC)c(OC)c(OC)c1 (racemic)        0%
1  COc1ccc2c(c1O)CCCC(CCC#N)=C2c1cc(OC)c(OC)c(OC)c1      2.8%
2  COc1ccc2c(c1O)CCCC=C2c1cc(OC)c(OC)c(OC)c1      6.2%
3  COc1cc2c(c(OC)c1OC)-c1ccc(OC)c(=O)cc1[C@@H](NC(C)=O)CC2 [COLCHICINE]      7.7%
4  COc1ccc2c(c1O)CCCC(C)=C2c1cc(OC)c(OC)c(OC)c1     13.5%

* * *

- EXPERIMENTAL TARGET: MDR1 (ABCB1, P-gp) (Homo sapiens, UniProt P08183)
- Sequence (P08183 whole entry): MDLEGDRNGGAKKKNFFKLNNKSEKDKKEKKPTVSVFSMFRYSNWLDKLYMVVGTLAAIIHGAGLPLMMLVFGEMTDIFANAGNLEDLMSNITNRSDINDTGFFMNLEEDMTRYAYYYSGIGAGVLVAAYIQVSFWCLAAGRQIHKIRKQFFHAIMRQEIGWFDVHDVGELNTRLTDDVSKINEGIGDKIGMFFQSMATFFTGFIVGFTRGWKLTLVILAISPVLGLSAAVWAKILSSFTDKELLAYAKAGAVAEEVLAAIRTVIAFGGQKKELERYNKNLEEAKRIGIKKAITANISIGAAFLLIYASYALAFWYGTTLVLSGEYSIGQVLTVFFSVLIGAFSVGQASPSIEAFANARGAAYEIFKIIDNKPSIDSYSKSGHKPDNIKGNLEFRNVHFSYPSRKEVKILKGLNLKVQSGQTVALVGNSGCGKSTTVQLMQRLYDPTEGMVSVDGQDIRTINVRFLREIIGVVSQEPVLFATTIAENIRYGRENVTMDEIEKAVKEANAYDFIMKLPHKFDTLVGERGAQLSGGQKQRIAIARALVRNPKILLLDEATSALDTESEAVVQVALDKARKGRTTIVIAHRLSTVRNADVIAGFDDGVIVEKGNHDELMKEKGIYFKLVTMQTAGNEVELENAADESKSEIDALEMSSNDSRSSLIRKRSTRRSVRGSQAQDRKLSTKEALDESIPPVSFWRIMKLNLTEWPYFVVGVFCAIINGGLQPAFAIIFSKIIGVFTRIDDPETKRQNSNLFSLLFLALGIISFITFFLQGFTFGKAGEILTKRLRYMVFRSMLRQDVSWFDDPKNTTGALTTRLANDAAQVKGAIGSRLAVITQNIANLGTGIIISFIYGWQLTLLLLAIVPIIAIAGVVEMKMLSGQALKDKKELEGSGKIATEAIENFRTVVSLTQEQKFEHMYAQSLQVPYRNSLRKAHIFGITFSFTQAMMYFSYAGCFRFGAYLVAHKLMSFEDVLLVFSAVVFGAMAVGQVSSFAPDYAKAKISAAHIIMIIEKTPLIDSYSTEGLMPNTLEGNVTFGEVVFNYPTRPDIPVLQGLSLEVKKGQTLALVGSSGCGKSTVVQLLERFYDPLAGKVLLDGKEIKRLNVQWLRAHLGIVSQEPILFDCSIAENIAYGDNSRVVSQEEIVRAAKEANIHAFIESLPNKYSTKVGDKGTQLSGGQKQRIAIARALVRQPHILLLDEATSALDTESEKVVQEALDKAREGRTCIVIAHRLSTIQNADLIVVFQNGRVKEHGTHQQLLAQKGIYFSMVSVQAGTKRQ
- ASSAY SUMMARY: Activity at MDR1 (unknown origin) expressed in MDCK cells assessed as efflux ratio of permeability at 2 uM
- Assay type: ADME, cell-based
MEASURED ATTRIBUTE: efflux ratio at 2 µM

                                chem_smiles    measured_attribute  reported
0  COc1ccc2c(c1O)CCCC(CCC#N)=C2c1cc(OC)c(OC)c(OC)c1  efflux ratio at 2 µM       1.2
1  COc1ccc2c(c1O)CCCC(C)=C2c1cc(OC)c(OC)c(OC)c1  efflux ratio at 2 µM      13.1
2  CCC1=C(c2cc(OC)c(OC)c(OC)c2)c2ccc(OC)c(O)c2CCC1  efflux ratio at 2 µM         1

* * *

- EXPERIMENTAL TARGET: CYP1A2 (Homo sapiens, UniProt P05177)
- Sequence (P05177 whole entry): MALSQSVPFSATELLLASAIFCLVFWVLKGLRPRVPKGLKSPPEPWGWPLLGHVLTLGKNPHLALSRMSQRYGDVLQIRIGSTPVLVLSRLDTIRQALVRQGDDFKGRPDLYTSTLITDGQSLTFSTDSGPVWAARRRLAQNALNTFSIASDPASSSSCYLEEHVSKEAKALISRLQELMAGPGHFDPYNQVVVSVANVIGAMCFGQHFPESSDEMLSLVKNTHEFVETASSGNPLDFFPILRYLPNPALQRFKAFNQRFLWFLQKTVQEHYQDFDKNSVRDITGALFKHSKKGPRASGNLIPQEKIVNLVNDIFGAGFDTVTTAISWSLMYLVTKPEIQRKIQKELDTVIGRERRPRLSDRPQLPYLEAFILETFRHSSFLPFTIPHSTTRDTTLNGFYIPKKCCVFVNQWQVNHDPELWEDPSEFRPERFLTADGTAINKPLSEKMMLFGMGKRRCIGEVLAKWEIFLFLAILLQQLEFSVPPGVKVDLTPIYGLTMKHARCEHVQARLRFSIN
- ASSAY SUMMARY: Inhibition of CYP1A2 (unknown origin) at 3 uM
- Assay type: ADME
MEASURED ATTRIBUTE: inhibition at 3 µM

>>> print(df.to_string())
                                   compound                    experimental_target  reported
0  CCC1=C(c2cc(OC)c(OC)c(OC)c2)c2ccc(OC)c(O)c2CCC1  CYP1A2 (Homo sapiens, UniProt P05177)     11.3%
1  COc1ccc2c(c1O)CCCC(C)=C2c1cc(OC)c(OC)c(OC)c1  CYP1A2 (Homo sapiens, UniProt P05177)     19.7%
2  COc1ccc2c(c1O)CCCC(CCC#N)=C2c1cc(OC)c(OC)c(OC)c1  CYP1A2 (Homo sapiens, UniProt P05177)      2.8%
3  COc1ccc2c(c1O)CCCC(CC(O)CO)=C2c1cc(OC)c(OC)c(OC)c1 (racemic)  CYP1A2 (Homo sapiens, UniProt P05177)        0%
4  COc1ccc2c(c1O)CCCC(Cc1ccccc1)=C2c1cc(OC)c(OC)c(OC)c1  CYP1A2 (Homo sapiens, UniProt P05177)     18.4%
5  COc1ccc2c(c1O)CCCC(CCCC#N)=C2c1cc(OC)c(OC)c(OC)c1  CYP1A2 (Homo sapiens, UniProt P05177)      1.5%
6  COc1ccc2c(c1O)CCCC=C2c1cc(OC)c(OC)c(OC)c1  CYP1A2 (Homo sapiens, UniProt P05177)       19%

* * *

- ASSAY SUMMARY: Apparent intrinsic clearance in human liver microsomes at 1 uM
- Assay type: ADME
- COND: read-out: CLH(app)
Here, each record is paired with measured microsomal CLint at 1 µM data.
MEASURED ATTRIBUTE: microsomal CLint at 1 µM (µL/min/mg)

>>> print(df.to_string())
                                   molecule        measured_attribute  result_qualifier  reported
0  CCC1=C(c2cc(OC)c(OC)c(OC)c2)c2ccc(OC)c(O)c2CCC1  microsomal CLint at 1 µM                 =       136
1  COc1ccc2c(c1O)CCCC=C2c1cc(OC)c(OC)c(OC)c1  microsomal CLint at 1 µM                 =      54.1
2  COc1ccc2c(c1O)CCCC(C)=C2c1cc(OC)c(OC)c(OC)c1  microsomal CLint at 1 µM                 =       108
3  COc1ccc2c(c1O)CCCC(Cc1ccccc1)=C2c1cc(OC)c(OC)c(OC)c1  microsomal CLint at 1 µM                 =      51.2
4  COc1ccc2c(c1O)CCCC(CCC#N)=C2c1cc(OC)c(OC)c(OC)c1  microsomal CLint at 1 µM                 >       320
5  COc1ccc2c(c1O)CCCC(CC(O)CO)=C2c1cc(OC)c(OC)c(OC)c1 (racemic)  microsomal CLint at 1 µM                 =      66.3
6  COc1ccc2c(c1O)CCCC(CCCC#N)=C2c1cc(OC)c(OC)c(OC)c1  microsomal CLint at 1 µM                 =       239

* * *

- EXPERIMENTAL TARGET: CYP2C9 (Homo sapiens, UniProt P11712)
- Sequence (P11712 whole entry): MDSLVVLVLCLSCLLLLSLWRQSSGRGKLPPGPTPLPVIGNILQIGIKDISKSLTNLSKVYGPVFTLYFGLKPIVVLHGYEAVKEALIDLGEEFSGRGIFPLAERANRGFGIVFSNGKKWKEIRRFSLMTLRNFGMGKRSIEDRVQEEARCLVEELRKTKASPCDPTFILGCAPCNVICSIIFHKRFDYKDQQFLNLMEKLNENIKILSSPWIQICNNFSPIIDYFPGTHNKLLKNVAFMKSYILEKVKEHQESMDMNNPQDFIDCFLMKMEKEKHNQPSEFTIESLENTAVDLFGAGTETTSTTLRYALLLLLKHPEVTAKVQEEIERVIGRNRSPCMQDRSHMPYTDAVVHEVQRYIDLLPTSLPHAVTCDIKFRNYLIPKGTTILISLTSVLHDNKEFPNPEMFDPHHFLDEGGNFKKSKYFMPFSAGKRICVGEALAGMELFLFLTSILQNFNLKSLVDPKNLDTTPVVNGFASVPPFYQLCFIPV
- ASSAY SUMMARY: Inhibition of CYP2C9 (unknown origin) at 3 uM
- Type: ADME
MEASURED ATTRIBUTE: inhibition at 3 µM (%)

                                   compound  u  reported
0  COc1ccc2c(c1O)CCCC(CCC#N)=C2c1cc(OC)c(OC)c(OC)c1  %      75.7
1  COc1ccc2c(c1O)CCCC(CCCC#N)=C2c1cc(OC)c(OC)c(OC)c1  %      23.7
2  CCC1=C(c2cc(OC)c(OC)c(OC)c2)c2ccc(OC)c(O)c2CCC1  %        75
3  COc1ccc2c(c1O)CCCC=C2c1cc(OC)c(OC)c(OC)c1  %      89.7
4  COc1cc2c(c(OC)c1OC)-c1ccc(OC)c(=O)cc1[C@@H](NC(C)=O)CC2  %      11.1
5  COc1ccc2c(c1O)CCCC(Cc1ccccc1)=C2c1cc(OC)c(OC)c(OC)c1  %      55.3
6  COc1ccc2c(c1O)CCCC(C)=C2c1cc(OC)c(OC)c(OC)c1  %      91.5
7  COc1ccc2c(c1O)CCCC(CC(O)CO)=C2c1cc(OC)c(OC)c(OC)c1 (racemic)  %       6.1

* * *

- EXPERIMENTAL TARGET: CYP2C8 (Homo sapiens, UniProt P10632)
- Sequence (P10632 whole entry): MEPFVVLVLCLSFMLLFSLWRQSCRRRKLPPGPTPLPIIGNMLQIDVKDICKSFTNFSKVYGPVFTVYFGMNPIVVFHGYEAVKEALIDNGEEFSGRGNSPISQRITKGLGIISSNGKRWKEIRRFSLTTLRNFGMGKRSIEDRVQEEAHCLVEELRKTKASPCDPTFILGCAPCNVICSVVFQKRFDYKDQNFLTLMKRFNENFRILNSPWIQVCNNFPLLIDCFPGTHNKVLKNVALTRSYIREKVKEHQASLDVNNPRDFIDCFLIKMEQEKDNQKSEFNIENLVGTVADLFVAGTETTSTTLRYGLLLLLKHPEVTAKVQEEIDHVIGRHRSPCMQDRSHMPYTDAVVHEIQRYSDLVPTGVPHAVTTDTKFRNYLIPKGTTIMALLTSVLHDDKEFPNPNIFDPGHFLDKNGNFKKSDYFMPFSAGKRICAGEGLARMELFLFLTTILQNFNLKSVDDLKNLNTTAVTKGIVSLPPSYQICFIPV
- ASSAY SUMMARY: Inhibition of CYP2C8 (unknown origin) at 3 uM
- Type: ADME
Returns Criterion met if the recorded inhibition at 3 µM is greater than or equal to 80%, and Criterion not met otherwise.

In [3]: df
Out[3]:
                                chem_smiles        label_value
0  COc1ccc2c(c1O)CCCC(C)=C2c1cc(OC)c(OC)c(OC)c1      Criterion met
1  COc1ccc2c(c1O)CCCC=C2c1cc(OC)c(OC)c(OC)c1  Criterion not met
2  COc1ccc2c(c1O)CCCC(Cc1ccccc1)=C2c1cc(OC)c(OC)c(OC)c1      Criterion met
3  CCC1=C(c2cc(OC)c(OC)c(OC)c2)c2ccc(OC)c(O)c2CCC1  Criterion not met
4  COc1ccc2c(c1O)CCCC(CCCC#N)=C2c1cc(OC)c(OC)c(OC)c1  Criterion not met
